Would you mind telling me the reported Kd of each entry?
# Target or system: T1, human IL-25 (human, UniProt Q9H293 33-177)
# T1 construct: also called IL-17E; rhIL-25
# T1 sequence: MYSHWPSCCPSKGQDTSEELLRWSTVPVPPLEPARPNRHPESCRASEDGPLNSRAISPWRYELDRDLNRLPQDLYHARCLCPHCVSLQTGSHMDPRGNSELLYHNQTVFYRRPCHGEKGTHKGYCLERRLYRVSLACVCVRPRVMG
# Assay notes: Biacore, 7200 sec dissociation
Only the number, expressed in nM, is required.

In: For the binder I25M34 (antibody, V domains shown, One of the 9 candidate IgG1 mAbs of the combinatorial library based on huDDG91) VH: EVQLVESGAEVKKPGASVKVSCKASGYSFSGYTMNWVRQAPGQRLEWMGLINPYNGGTSYNQNFKGRVTLTVDTSASTAYLELNSLRSEDTGVYYCAREDFDSWTYFAMDYWGQGTLVTVS VL: DIQMTQSPSSLSASVGDRVTITCSASQGINEYLNWYQQKPGKVPKLLIYYTSSLHSGVPSRFSGSGSGTDFTLTISSLQPEDVATYYCQQYINFPYTFGQGTKLEIK , what Kd is on record?
Out: 0.064

In: M6 antibody (antibody, human IgG1, kappa, V domains shown, Humanized IgG1 mAb with kappa light chain, a variant of huDDG91 with three substitutions in light chain CDR3) VH: EVQLVESGAEVKKPGASVKVSCKASGYSFSGYTMNWVRQAPGQRLEWMGLINPYNGGTSYNQNFKGRVTLTVDTSASTAYLELNSLRSEDTGVYYCAREDYDGYLYFAMDYWGQGTLVTVSS VL: DIQMTQSPSSLSASVGDRVTITCSASQGISNYLNWYQQKPGKVPKLLIYYTSSLHSGVPSRFSGSGSGTDFTLTISSLQPEDVATYYCQQYLAFPYTFGQGTKLEIKR ?
Out: 0.053

In: I25M32 (antibody, V domains shown, One of the 9 candidate IgG1 mAbs of the combinatorial library based on huDDG91) VH: EVQLVESGAEVKKPGASVKVSCKASGYSFSGYTMNWVRQAPGQRLEWMGLINPYNGGTSYNQNFKGRVTLTVDTSASTAYLELNSLRSEDTGVYYCAREDYDSWTFFAMDYWGQGTLVTVS VL: DIQMTQSPSSLSASVGDRVTITCSASQGINEYLNWYQQKPGKVPKLLIYYTSSLHSGVPSRFSGSGSGTDFTLTISSLQPEDVATYYCQQYINFPYTFGQGTKLEIK ?
Out: 0.087
